Target: BCL2 WT (Homo sapiens (Human))
Sequence (P10415 other isoform, or with tags, fused parts or gaps): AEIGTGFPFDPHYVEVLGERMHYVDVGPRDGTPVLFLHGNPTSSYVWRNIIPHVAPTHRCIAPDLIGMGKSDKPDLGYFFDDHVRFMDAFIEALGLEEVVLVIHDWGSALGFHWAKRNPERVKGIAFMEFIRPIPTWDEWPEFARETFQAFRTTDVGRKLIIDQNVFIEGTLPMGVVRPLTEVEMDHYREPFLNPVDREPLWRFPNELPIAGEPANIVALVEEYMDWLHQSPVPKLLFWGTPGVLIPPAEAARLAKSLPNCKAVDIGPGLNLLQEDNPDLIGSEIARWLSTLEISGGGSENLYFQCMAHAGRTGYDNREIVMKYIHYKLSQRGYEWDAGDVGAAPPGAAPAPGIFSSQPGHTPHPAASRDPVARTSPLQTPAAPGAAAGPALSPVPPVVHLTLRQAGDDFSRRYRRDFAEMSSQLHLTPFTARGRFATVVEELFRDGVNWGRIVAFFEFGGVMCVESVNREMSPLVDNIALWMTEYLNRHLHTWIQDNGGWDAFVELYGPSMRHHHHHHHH
Assay: TR-FRET competitive binding assay, BCL2 WT
Conditions: Ki determined from IC50, read-out: TR_FRET EKI_Bcl2 WT
Protocol: The relative binding potency of each compound was determined in a competitive binding assay using time resolved-fluorescence resonance energy transfer (TR-FRET). […] The degree of binding or corresponding compound inhibition can be quantified by the TR-FRET signal between the terbium donor and fluorescein acceptor. […] TR-FRET measurements were performed on a Biotek Synergy Neo plate reader. […] The TR-FRET signal was calculated as the emission-ratio at 520 nm over 495 nm. […]
pKi: −log10 of the molar value.
reported-metric: pKi

Below: 6 compounds and their reported pKi.
compound=CCn1c(C#N)cc(N(C(=O)c2cc(-c3cc4c(cc3C(=O)N3Cc5ccccc5C[C@H]3C)CN(C(=O)Cc3ccc(OCCN5CCOCC5)cc3)CC4)n(C)c2C)c2ccc(O)cc2)c1C reported_metric=pKi measured=9.92
compound=Cc1c(C(=O)N(c2ccccc2)c2cnn(C(F)F)c2)cc(-c2cc3c(cc2C(=O)N2Cc4ccccc4C[C@H]2C)CN(C(=O)Cc2ccc(OCCN(C)C)cc2)CC3)n1C reported_metric=pKi measured=10.10
compound="Cc1c(C(=O)N(c2ccc(O)cc2)c2cc(C#N)n(CC3CCOC3)c2C)cc(-c2cc3c(cc2C(=O)N2Cc4ccccc4C[C@H]2C)CN(C(=O)Cc2ccc(OCCN4CCOCC4)cc2F)CC3)n1C (single isomer, unassigned)" reported_metric=pKi measured=9.80
compound=Cc1c(C(=O)N(c2ccccc2)c2cnn(C(F)F)c2)cc(-c2cc3c(cc2C(=O)N2Cc4ccccc4C[C@H]2C)CN(C(=O)Cc2ccc(OCCN4CCOCC4)cc2F)CC3)n1C reported_metric=pKi measured=10.40
compound=Cc1c(N(C(=O)c2cc(-c3cc4c(cc3C(=O)N3Cc5ccccc5C[C@H]3C)CN(C(=O)C(F)(F)c3ccccc3)CC4)n(C)c2C)c2ccc(O)cc2)cc(C#N)n1C reported_metric=pKi measured=9.52
compound=Cc1c(N(C(=O)c2cc(-c3cc4c(cc3C(=O)N3Cc5ccccc5C[C@H]3C)CN(C(=O)Cc3ccc(OCCN5CCOC6(CCCC6)C5)cc3)CC4)n(C)c2C)c2ccc(O)cc2)cc(C#N)n1C reported_metric=pKi measured=9.30

A = Cc1c(C(=O)N(c2ccc(F)cc2)c2cnn(C)c2)cc(-c2cc3c(cc2C(=O)N2Cc4ccccc4C[C@H]2C)CN(C(=O)Cc2ccc(OCCN4CCOCC4)cc2)CC3)n1C
B = Cc1c(N(C(=O)c2cc(-c3cc4c(cc3C(=O)N3Cc5ccccc5C[C@H]3CN3CCC[C@@H]3C)CN(C(=O)Cc3ccc(OCCN5CCOCC5)cc3F)CC4)n(C)c2C)c2ccc(O)cc2)cc(C#N)n1C
Short answer wanted: higher pKi, A or B ? // return label of chosen record
B
(B: 10.52, A: 10.22)
